measurement.description: SAD study plasma PK, single oral dose, healthy young subjects
Type: in vivo, human
protocol.conditions: human, plasma, po, 1 mg, Tmax, Min–max, single oral dose 1 mg, n=2
property.measured: Tmax

Query :: Looking for the measured Tmax of Cn1c(-c2ccc(C(N)=O)cc2F)nnc1C(C)(C)Oc1c(F)cc(Cl)cc1F , can you help?
Result :: 30 to 60 min

---

measurement.description: SAD study plasma PK, single oral dose, healthy young subjects
Type: in vivo, human
protocol.conditions: human, plasma, po, 10 mg, Tmax, Min–max, single oral dose 10 mg, n=6
property.measured: Tmax

Query :: Looking for the measured Tmax of Cn1c(-c2ccc(C(N)=O)cc2F)nnc1C(C)(C)Oc1c(F)cc(Cl)cc1F , can you help?
Result :: 1 to 6 h
